System: SMN2-linked luciferase-reporter gene construct
run.description: SMN Splice Reporter Assay (SMN2-linked luciferase reporter)
Assay type: cell-based
study.conditions: fold-increase of luciferase over baseline reading of transformed cells without any test compound
observed.property: Fold Increase

                                    compound  observed_property  numeric_value
 0  COc1ccc2c(c1)C(=O)N(c1ccc3nccnc3c1)C2 [Example 120791]      Fold Increase          1.372
 1  Cn1ccc2ccc(N3Cc4cc5c(cc4C3=O)OCCO5)cc21 [Example 118902]      Fold Increase          1.774
 2  COc1ccc2c(c1)C(=O)N(c1ccc3ncsc3c1)C2 [Example 120596]      Fold Increase          1.591
 3  CCCc1ccc2c(c1)C(=O)N(c1ccc3c(ccn3C)c1)C2 [Example 119522]      Fold Increase          1.557
 4  CC(=O)Nc1ccc2c(c1)C(=O)N(c1ccc3c(ccn3C(C)C)c1)C2 [Example 126111]      Fold Increase           1.34
 5  CCCOc1ccc2c(c1)C(=O)N(c1ccc3sccc3c1)C2 [Example 122551]      Fold Increase          1.235
 6  CCCn1ccc2ccc(N3Cc4ccc(OC)cc4C3=O)cc21 [Example 119868]      Fold Increase          1.582
 7  CCOC1CS(=O)(=O)c2cc(N3Cc4ccc(OC)cc4C3=O)ccc21 (stereo not shown) [Example 124031]      Fold Increase          1.106
 8  Cc1cccc2c1CN(c1ccc3ccn(C)c3c1)C2=O [Example 120953]      Fold Increase          1.495
 9  Cn1ccc2cc(N3Cc4ccccc4C3=O)ccc21 [Example 120287]      Fold Increase          1.433
10  COc1ccc2c(c1)C(=O)N(c1ccc(C(C)C)nc1)C2 [Example 119655]      Fold Increase          1.372
11  CN1CCCc2cc(N3Cc4ccc(OC(F)F)cc4C3=O)ccc21 [Example 122319]      Fold Increase           1.97
12  CC(C)Oc1ccc2c(c1)C(=O)N(c1ccc3c(ccn3C)c1)C2 [Example 121923]      Fold Increase          1.194
13  COc1ccc2c(c1)C(=O)N(c1ccc3nccn3c1)C2 [Example 120955]      Fold Increase          1.265
14  COc1ccc2c(c1)C(=O)N(c1ccc3ccc(Cl)nc3c1)C2 [Example 123710]      Fold Increase          1.327
15  CN(C)c1ccc2c(c1)C(=O)N(c1ccc3c(c1)CCN3C)C2 [Example 119660]      Fold Increase          1.074
16  Cn1ccc2cc(N3Cc4cc(Cl)ccc4C3=O)ccc21 [Example 120778]      Fold Increase          1.492
17  O=C1c2ccccc2CN1c1ccc2c(c1)OCO2 [Example 116238]      Fold Increase          1.235
18  Cn1ccc2ccc(N3Cc4ccccc4C3=O)cc21 [Example 120435]      Fold Increase          1.585
19  COc1ccc2c(c1)C(=O)N(c1ccc3nccc(Cl)c3c1)C2 [Example 123013]      Fold Increase          1.413
20  C/C=C(/C)c1ccc2c(c1)C(=O)N(c1ccc3c(ccn3C)c1)C2 [Example 122041]      Fold Increase          1.606
21  COc1ccc2c(c1)C(=O)N(c1ccc3[nH]c(=O)[nH]c3c1)C2 [Example 120433]      Fold Increase          1.296
22  COc1ccc2c(c1)C(=O)N(c1ccc3ccsc3c1)C2 [Example 118739]      Fold Increase          1.617
23  COc1ccc2c(c1)C(=O)N(c1ccc3[nH]ccc3c1)C2 [Example 119657]      Fold Increase           1.21
24  Cc1ccc2c(c1)C(=O)N(c1ccc3c(c1)cc(C)n3C)C2 [Example 123015]      Fold Increase           1.43
25  COc1cccc2c1CN(c1ccc3ccsc3c1)C2=O [Example 121513]      Fold Increase          1.612
26  COc1ccc2c(c1)C(=O)N(c1ccc3c(ccn3C(C)C)c1)C2 [Example 119518]      Fold Increase          1.617
27  Cn1ccc2cc(N3Cc4ccc(NC=O)cc4C3=O)ccc21 [Example 125096]      Fold Increase          1.371
28  CC(C)Oc1ccc2c(c1)C(=O)N(c1ccc3ccn(C)c3c1)C2 [Example 124326]      Fold Increase          1.666
29  Cn1ccc2cc(N3Cc4cccc(N)c4C3=O)ccc21 [Example 120427]      Fold Increase          1.606
30  COc1ccc2c(c1)C(=O)N(c1ccc3c(c1)OC(F)(F)O3)C2 [Example 116565]      Fold Increase            1.3
31  Cn1ccc2ccc(N3Cc4ccc(NC(=O)c5ccccc5)cc4C3=O)cc21 [Example 124775]      Fold Increase          1.216
32  CCc1cc2cc(N3Cc4ccc(OC)cc4C3=O)ccc2n1C [Example 124327]      Fold Increase          1.361
33  COc1cc2c(cc1OC)C(=O)N(c1ccc3ncccc3c1)C2 [Example 120954]      Fold Increase          1.356
34  CC(=O)Nc1ccc2c(c1)C(=O)N(c1ccc3ccn(C)c3c1)C2 [Example 121505]      Fold Increase          1.817
35  CCCCc1ccc2c(c1)C(=O)N(c1ccc3c(c1)cc(C)n3C)C2 [Example 123331]      Fold Increase           1.31
36  O=C1c2cc(OC(F)F)ccc2CN1c1ccc2c(c1)CCC2 [Example 119337]      Fold Increase           1.66

---

Catalogue of melting point readings, one per entry.
observed.property: melting point

                                    compound                result
 0  COc1ccc2c(c1)C(=O)N(c1ccc3ccn(CC#N)c3c1)C2 [Example 22]         218 to 220 °C
 1  COc1ccc2c(c1)C(=O)N(c1ccc3c(cnn3C)c1)C2 [Example 44]         213 to 214 °C
 2  COc1ccc2c(c1)C(=O)N(c1ccc3nc(C)ncc3c1)C2 [Example 49]         245 to 247 °C
 3  Nc1ccc2c(c1)C(=O)N(c1ccc3ccsc3c1)C2 [Example 29]         233 to 236 °C
 4  COc1ccc2c(c1)C(=O)N(c1cnc3c(ccn3C)c1)C2 [Example 43]         198 to 199 °C
 5  COc1ccc2c(c1)C(=O)N(c1ccc3c(ccc[n+]3[O-])c1)C2 [Example 33]         251 to 255 °C
 6  COc1ccc2c(c1)C(=O)N(c1ccc3c(c1)CCCN3C)C2 [Example 45]         123 to 127 °C
 7  Cn1ccc2cc(N3Cc4ccc(OC(F)(F)C(F)Cl)cc4C3=O)ccc21 (centres unmarked) [Example 4]         200 to 205 °C
 8  COc1ccc2c(c1)C(=O)N(c1ccc3c(c1)cc(C)n3C)C2 [Example 18]         209 to 213 °C
 9  Cn1ccc2cc(N3Cc4ccc(Br)cc4C3=O)ccc21 [Example 11]         235 to 237 °C
10  O=C1c2cc(OC(F)F)ccc2CN1c1ccc2c(c1)CCC2 [Example 50]         137 to 139 °C
11  COc1ccc2c(c1)C(=O)N(c1ccc3ncsc3c1)C2 [Example 47]         204 to 207 °C
12  CC(=O)Nc1ccc2c(c1)C(=O)N(c1ccc3c(ccn3C)c1)C2 [Example 8]         275 to 280 °C
13  COc1ccc2c(c1)C(=O)N(c1ccc3ncccc3c1)C2 [Example 32]         194 to 197 °C
14  COc1ccc2c(c1)C(=O)N(c1ccc3[nH]c(=O)[nH]c3c1)C2 [Example 35]  355 to 360 °C (dec.)
15  COc1ccc2c(c1)C(=O)N(c1ccc3c(ccn3C)n1)C2 [Example 41]         230 to 234 °C
16  COc1ccc2c(c1)C(=O)N(c1cc3ccn(C)c3cn1)C2 [Example 42]         205 to 210 °C
17  COc1ccc2c(c1)C(=O)N(c1ccc3ccoc3c1)C2 [Example 48]         141 to 143 °C
18  COc1ccc2c(c1)C(=O)N(c1ccc(C(C)C)cn1)C2 [Example 39]         109 to 110 °C
19  COc1ccc2c(c1)C(=O)N(c1ccc3cccnc3c1)C2 [Example 51]         220 to 223 °C
